The label depends only on melting point: Y if it is at least 80 °C, N if it is smaller.

Quick check: does FC(F)(Cl)Cl [Dichloro(difluoro)methane] have melting point greater than or equal to 80 °C?
N

Threshold query (melting point >= 80 °C) on Nc1nc(O)nc2c1cnn2CCO [4-amino-1-(2-hydroxyethyl)-1H-pyrazolo[3,4-d]pyrimidin-6-ol]
Y

Decide: is the reported value of melting point for CC(=O)c1cc(O)cc(O)c1 [3',5'-dihydroxyacetophenone] equal to or greater than 80 °C?
Y

Confirm if melting point reported for the molecule CCOC(=O)C1=C(C)C(C(=O)OCC)N=C1C (stereo not drawn) [2,4-Dimethyl-3,5-dicarbethoxypyrrole] is 80 °C or above.
Y

Assess whether reported melting point for Cc1ccccc1C1C=C(c2ccccc2)N=N1 (stereo not drawn) [5-(2-methylphenyl)-3-phenyl-1H-pyrazole] sits at 80 °C or higher.
Y

hey, is melting point for this one >= 80 °C? O=[N+]([O-])c1ccc(OCC(O)CO)cc1 (stereo not drawn) [1-(4-nitrophenyl)glycerol]
Y

Reported melting point reaches at least 80 °C for CCCCCC(=O)O [Hexanoic acid] ?
N

Exam item: decide whether the reported melting point for CC(C)(C)OC(=O)NCC(=O)N(Cc1ccco1)C(C(=O)NCc1ccccc1)c1ccccc1 (stereo not drawn) [Ugi product 108C (UC)] is at least 80 °C.
Y

Is reported melting point greater than or equal to 80 °C here: CC(Cl)(Cl)Cl [1,1,1-trichloroethane]
N

Textbook exercise: given the entry CC(C)(C)CO [neopentyl alcohol] , state whether its melting point is greater than or equal to 80 °C.
N

Check this molecule for melting point at or above 80 °C: O=CC1CCCCC1 [cyclohexanecarbaldehyde]
N

Entry O=S(=O)(Cl)c1ccc(Cl)c(Cl)c1Cl [2,3,4-trichlorobenzenesulfonyl chloride] : is its melting point no less than 80 °C?
N

Decide: is the reported value of melting point for O=C(O)CCCCCCCCCCCCCCO [15-hydroxypentadecanoic acid] equal to or greater than 80 °C?
Y

Does the molecule C[C@]12C=CC(=O)C=C1CC[C@H]1[C@@H]3C[C@@H](O)[C@](O)(C(=O)CO)[C@@]3(C)C[C@H](O)[C@@]12F [Triamcinolone] have recorded melting point that is 80 °C or more?
Y

Answer whether melting point of CC(Cc1ccccc1)NCCC(c1ccccc1)c1ccccc1 (stereo not drawn) [Prenylamine] is greater than or equal to 80 °C.
N

# check: melting point of O=P(O)(O)CP(=O)(O)O [methylenediphosphonic acid] is greater than or equal to 80 °C
Y

----------
Assign Satisfied whenever melting point does not fall below 100 °C; assign Not satisfied whenever it does.

Reported melting point at or above 100 °C? CC(C)C(C)C [2,3-dimethylbutane]
Not satisfied

Has COC(=O)c1ccc(C)cc1 [methyl p-toluate] a recorded melting point greater than or equal to 100 °C?
Not satisfied

Please indicate if the recorded melting point for Cc1c(C(=O)O)cc([N+](=O)[O-])cc1[N+](=O)[O-] meets or exceeds 100 °C.
Satisfied

Could you verify whether the entry CCOC(=O)c1ccccc1N [ethyl_2-aminobenzoate] shows melting point of no less than 100 °C?
Not satisfied

hey, is melting point for this one >= 100 °C? Cc1cccc(Nc2ccccc2C(=O)O)c1C [mefenamic acid]
Satisfied

I'd appreciate it if you could say whether CO[Si](OC)(OC)OC has melting point at least equal to 100 °C.
Not satisfied

Could you tell me if the measured melting point of N=C(NCCCCCCNC(=N)NC(=N)Nc1ccc(Cl)cc1)NC(=N)Nc1ccc(Cl)cc1 reaches 100 °C or more?
Satisfied

Reported melting point at or above 100 °C? CSCC[C@H](NC(C)=O)C(=O)O [N-Acetylmethionine]
Satisfied

Kindly determine if melting point recorded for CC1(CO)NC(C(=O)O)CC2c3ccccc3NC21 (stereo not given) is above or exactly 100 °C.
Satisfied

Answer whether melting point of O=Cc1ccc(B(O)O)cc1 is greater than or equal to 100 °C.
Satisfied

----------
Exercise: state measured melting point for each of the compounds provided.
Don't forget the unit after the value.

Given item CCc1ccc(Br)cc1 , the value recorded as its melting point is -43 °C

Lab note: measured melting point of CC1(C)C(=O)[C@]2(C)CC[C@H]1C2 was 4 °C

melting point measured on O=c1[nH]cc(F)c(=O)[nH]1 = 283 °C

# melting point of Clc1nc(Cl)nc(Cl)n1 [cyanuric chloride] = 147 °C

Sample COc1ccc(N/N=C(\C#N)c2nc(-c3ccc(C)cc3)cs2)cc1 ; melting point observed: 146 °C

// field: melting point; key: NCCc1ccccc1 ; value = -60 °C

// field: melting point; key: N#CCc1ccccc1[N+](=O)[O-] [o-nitrophenylacetonitrile] ; value = 84 °C

compound Nc1ccc([N+](=O)[O-])cc1 , melting point observed: 148 °C

Noted for CC(C)(C)C(=O)Cl [trimethylacetyl chloride] : its melting point reads -57 °C

// melting point value for O=C(N[C@H](CO)Cc1ccccc1)OCc1ccccc1 : 94 °C

Lookup result for OCCN1CCCCC1C(c1ccccc1)c1ccccc1 (configuration not stated) ; measured melting point: 106 °C

compound Nc1ccc(-c2ccccc2)cc1 , melting point observed: 54 °C

For this compound ( O=C(O)c1csnn1 ), measured melting point is 228 °C

Summary for this compound, Clc1ccc(I)cc1 : melting point is 55 °C

// field: melting point; key: NS(=O)(=O)c1ccc(Cl)cc1 [4-chlorobenzenesulfonamide] ; value = 146 °C

// sample Cc1cccc[n+]1[O-] [2-picoline n-oxide] , its melting point was 48 °C

Reported melting point ( CC(=O)NS(=O)(=O)c1ccc(N)cc1 [sulfacetamide] ) = 183 °C

melting point for O=[N+]([O-])c1cccc(C=Cc2cccc([N+](=O)[O-])c2)c1 [1,1'-[1,2-Ethenediyl]bis[3-nitrobenzene]] is 88 °C

Record C1[C@H]3C[C@@H]2C[C@@H](C[C@H]1C2)C3 . Reported melting point: 269 °C

In plain terms, Cn1cnc2c1c(=O)[nH]c(=O)n2C has a documented melting point of 357 °C

melting point in this record for NC1CCCCC1 : -18 °C

// field: melting point; key: COC(=O)/C=C(/C(=O)OC)N(Nc1ccccc1N=Nc1ccccc1)c1ccccc1 ; value = 154 °C

----------
endpointName: melting point (°C)
Enter your answer as a number in °C; do not include the unit.

# melting point (compound: c1ccc(-c2nnc(-c3ccccc3)o2)cc1 ) is 140

Data point: CC(C)(O)c1ccccc1 ; melting point = 34

Consider O=C(O)c1cccc(O)c1 [3-hydroxybenzoic_acid] . Its measured melting point is 203

Per the record, O=C(O)CCc1ccc(B(O)O)cc1 has melting point of 147

Reported melting point of Nc1ccc(Br)cc1 [p-bromoaniline] : 63

So, Cc1ccc(C)c(/C=C/c2ccc(-c3ccc(/C=C/c4cc(C)ccc4C)cc3)cc2)c1 ? Its melting point was 198

Sure, the documented melting point for O=Cc1cccc(B(O)O)c1 is 111

// sample O=C1C=CC(=O)c2ccccc21 , its melting point was 122

Lookup result for O=C(O)CC[C@H](NC(=O)OCc1ccccc1)C(=O)O ; measured melting point: 119

----------
Can you tell me melting point for the items I'm about to list?

Kindly note the recorded melting point for Clc1ccc(C(c2ccc(Cl)cc2)C(Cl)(Cl)Cl)cc1 [1,1'-(2,2,2-Trichloroethane-1,1-diyl)bis(4-chlorobenzene)] , which is 108 °C

O=C(O)c1cc(C(=O)O)c(C(=O)O)cc1C(=O)O [pyromellitic acid] yielded melting point of 283 °C

The recorded melting point for entry N#CC(C#N)=Nc1ccccc1 [(phenylimino)propanedinitrile] equals 87 °C

Looking up CCCCC1C(=O)N(c2ccccc2)N(c2ccccc2)C1=O [phenylbutazone] , I see its melting point listed as 107 °C

----------
For each entry below, report its melting point value.
Numeric answer only, unit °C assumed.

For this compound ( O=C1OCCOC(=O)C2CCCCC2C(=O)OCCOC(=O)C2CCCCC12 (centres undefined) ), measured melting point is 140

The compound identified as Cc1cc(C)cc(C=O)c1 [3,5-dimethylbenzaldehyde] registered its melting point at 9

Measured melting point of CNC(=O)O/N=C(\C)SC [Methyl (1E)-N-[(methylcarbamoyl)oxy]ethanimidothioate] : 79

For reference, reported melting point for Cn1c(/C(C#N)=N/Nc2cccc(Cl)c2)nc2ccccc21 stands at 166

Record Cc1ccccc1CNC(=S)Nc1ccccc1 [1-(2-methylbenzyl)-3-phenylthiourea] , field melting point: 163

Consider NC(=O)c1ccccc1 [Benzamide] . Its measured melting point is 127

Record summary for N#CCc1ccc2ccccc2c1 [2-naphthylacetonitrile] : reported melting point = 83

Cc1cc(=O)n(-c2ccccc2)n1C [Antipyrine] yielded melting point of 112

For Nc1ccc([N+](=O)[O-])cc1Cl [2-chloro-4-nitroaniline] the compound record lists melting point as 108

The recorded melting point for entry OB(O)c1ccccc1-c1ccccc1 [biphenyl-2-boronic acid] equals 179

Lab book: melting point of CCc1ccccc1 [Ethylbenzene] noted as -94.9

Value of melting point reported for the compound O=C(O)c1ccccc1C(=O)O [phthalic_acid] is 210

Per the records, this compound ( COc1ccc(C(=O)/C=C/c2ccc(-c3ccccc3[N+](=O)[O-])o2)cc1OC ) has melting point equal to 120

// field: melting point; key: Cc1ccccc1N1CCN(CCc2nnc3n2CCCC3)CC1 [dapiprazole] ; value = 158

Record summary for OCc1ccccc1O[C@@H]1O[C@H](CO)[C@@H](O)[C@H](O)[C@H]1O [D-salicin] : reported melting point = 199

Per the record, COc1ccc(Cl)c(Cl)c1Cl [1-Methoxy-2,3,4-trichlorobenzene] has melting point of 70

Item: Oc1cccc2cccnc12 [Quinolin-8-ol] | melting point: 76

O=C(O)C(F)(F)C(F)(F)C(F)(F)C(F)(F)C(F)(F)C(F)(F)F [Tridecafluoroheptanoic acid] has a reported melting point of 30

Reported melting point ( Cc1ccc(O)c(C)c1 [2,4-dimethylphenol] ) = 27

So, Cc1c(C2(c3cc(Br)c(O)c(Br)c3C)OS(=O)(=O)c3ccccc32)cc(Br)c(O)c1Br ? Its melting point was 225

Short answer for C=CC(=O)O [Acrylic Acid] : melting point was 13.5

// sample Clc1cc(Cl)c(Cl)cc1Cl [1,2,4,5-Tetrachlorobenzene] , its melting point was 139

Reported melting point for C#CCCCCCCCCC [1-undecyne] was -25

Field melting point (entry CC(C)c1ccccc1O [2-isopropylphenol] ) reads 16
